Where do the numbers come from? From patent US20060030600A1.

Biological target: Recombinant human NK3 (hNK3) receptor (Homo sapiens, UniProt P29371)
Construct: expressed in transfected cells
Sequence (P29371 whole entry): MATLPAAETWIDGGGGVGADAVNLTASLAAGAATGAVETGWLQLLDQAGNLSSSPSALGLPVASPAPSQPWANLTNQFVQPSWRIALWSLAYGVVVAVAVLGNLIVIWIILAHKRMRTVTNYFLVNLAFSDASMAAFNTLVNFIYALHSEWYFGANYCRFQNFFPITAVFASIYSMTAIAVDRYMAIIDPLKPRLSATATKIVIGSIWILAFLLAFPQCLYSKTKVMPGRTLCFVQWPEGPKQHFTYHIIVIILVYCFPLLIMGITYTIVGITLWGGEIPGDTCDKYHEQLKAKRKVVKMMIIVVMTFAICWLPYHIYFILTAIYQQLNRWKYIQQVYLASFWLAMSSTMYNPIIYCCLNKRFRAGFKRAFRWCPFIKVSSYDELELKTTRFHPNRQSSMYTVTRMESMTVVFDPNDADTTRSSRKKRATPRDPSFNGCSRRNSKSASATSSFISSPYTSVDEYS
Experiment: NK3 receptor affinity, [3H]SR142801 binding
Settings: hNK3 receptor membranes, [3H]SR142801 0.3 nM; read-out: pki NK3 (converted)
Protocol: Recombinant human NK3 (hNK3) receptor affinity was determined in a 96 well plate assay, using [^3H]SR142801 (final concentration 0.3 nM) to radiolabel the hNK3 receptor in the presence of 10 concentrations of competing compound or buffer. Non specific binding was determined using 10 μM SB222200. Assay buffer consisted of Tris-HCl (50 mM, pH 7.4), BSA (0.1%), MnCl2 (4 mM) and phosphoramidon (1 μM). […]
Threshold check on Ki: strictly below 10 nM is met; on or above 10 nM is not met.

Would you please look over these solved cases?
>>> df
                                smiles_text                              assay_target  qualitative_label
0  Cc1cc(F)ccc1-c1cc(C2=CCN(S(C)(=O)=O)CC2)ncc1N(C)C(=O)C(C)(C)c1cc(C(F)(F)F)cc(C(F)(F)F)c1  Recombinant human NK3 (hNK3) receptor (Homo sapiens, UniProt P29371)                met
1  Cc1cc(F)ccc1-c1cc(-c2cccc(CO)c2)ncc1N(C)C(=O)C(C)(C)c1cc(C(F)(F)F)cc(C(F)(F)F)c1  Recombinant human NK3 (hNK3) receptor (Homo sapiens, UniProt P29371)                met
2  Cc1cc(F)ccc1-c1cc(-c2cncc(CO)c2)ncc1N(C)C(=O)C(C)(C)c1cc(C(F)(F)F)cc(C(F)(F)F)c1  Recombinant human NK3 (hNK3) receptor (Homo sapiens, UniProt P29371)                met

Quick check: does Cc1cc(F)ccc1-c1cc(C2=CCSCC2)ncc1N(C)C(=O)C(C)(C)c1cc(C(F)(F)F)cc(C(F)(F)F)c1 have Ki under 10 nM?
not met

Quick check: does Cc1cc(F)ccc1-c1cc(-c2ccc[n+]([O-])c2)ncc1N(C)C(=O)C(C)(C)c1cc(C(F)(F)F)cc(C(F)(F)F)c1 have Ki under 10 nM?
not met

Quick check: does Cc1cc(F)ccc1-c1cc(OC[C@@H]2CCCN2)ncc1N(C)C(=O)C(C)(C)c1cc(C(F)(F)F)cc(C(F)(F)F)c1 have Ki under 10 nM?
not met
